Each entry below carries its measured log10(Ki), system: NS3 (Hepatitis C virus, UniProt A3EZJ3).
Sequence (A3EZJ3 whole entry): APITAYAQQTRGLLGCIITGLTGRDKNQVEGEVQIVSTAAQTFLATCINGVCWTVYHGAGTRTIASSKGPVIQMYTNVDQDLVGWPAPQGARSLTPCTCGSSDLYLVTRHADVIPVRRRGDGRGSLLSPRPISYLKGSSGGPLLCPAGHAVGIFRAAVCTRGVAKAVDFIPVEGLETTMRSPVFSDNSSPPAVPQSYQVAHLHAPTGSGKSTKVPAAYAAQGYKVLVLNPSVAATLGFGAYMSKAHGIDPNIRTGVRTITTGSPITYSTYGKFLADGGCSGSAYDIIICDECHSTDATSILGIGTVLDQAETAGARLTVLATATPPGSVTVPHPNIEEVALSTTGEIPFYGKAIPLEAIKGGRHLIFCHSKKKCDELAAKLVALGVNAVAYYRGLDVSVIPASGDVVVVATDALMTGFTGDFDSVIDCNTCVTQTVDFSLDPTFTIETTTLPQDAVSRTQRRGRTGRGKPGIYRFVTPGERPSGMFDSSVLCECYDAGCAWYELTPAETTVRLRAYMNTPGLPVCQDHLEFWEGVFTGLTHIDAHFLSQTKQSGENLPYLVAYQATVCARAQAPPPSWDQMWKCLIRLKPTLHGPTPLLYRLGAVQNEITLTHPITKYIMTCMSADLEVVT
Record value = log10 of Ki given in nM.

Worked examples, 3 molecules total:
molecule: CCCC(NC(=O)[C@@H]1[C@@H]2[C@H](CN1C(=O)[C@@H](NC(=O)OC(C)(C)C)C1CCCCC1)C2(C)C)C(=O)C(N)=O (stereo partly drawn)
target-or-test-system: NS3 (Hepatitis C virus, UniProt A3EZJ3)
log10(Ki): 2.00
--
molecule: CC(C)(C)NC(=O)N[C@H](C(=O)N1C[C@H]2[C@@H]([C@H]1C(=O)NC(CC1CC1)C(=O)C(N)=O)C2(C)C)C(C)(C)C (stereo partly drawn)
target-or-test-system: NS3 (Hepatitis C virus, UniProt A3EZJ3)
log10(Ki): 1.11
--
molecule: CC(C)[C@H](NC(=O)OC(C)(C)C)C(=O)N1C[C@H]2[C@@H]([C@H]1C(=O)NC(CC1CC1)C(=O)C(N)=O)C2(C)C (stereo partly drawn)
target-or-test-system: NS3 (Hepatitis C virus, UniProt A3EZJ3)
log10(Ki): 2.32

Give log10(Ki); test system NS3 (Hepatitis C virus, UniProt A3EZJ3); molecule CC(C)[C@H](C)OC(=O)N[C@H](C(=O)N1C[C@H]2[C@@H]([C@H]1C(=O)NC(CC1CCC1)C(=O)C(N)=O)C2(C)C)C(C)(C)C (stereo partly drawn) 1.56

Give log10(Ki); test system NS3 (Hepatitis C virus, UniProt A3EZJ3); molecule CC(C)(C)OC(=O)N[C@H](C(=O)N1C[C@H]2[C@@H]([C@H]1C(=O)NC(CC1CC1)C(=O)C(N)=O)C2(C)C)C1CCCC1 (stereo partly drawn) 2.00

Give log10(Ki); test system NS3 (Hepatitis C virus, UniProt A3EZJ3); molecule CCCC(NC(=O)[C@@H]1[C@@H]2[C@H](CN1C(=O)[C@@H](NC(=O)OC(C)(C)C)C1CCCCC1)C2(C)C)C(=O)C(=O)NCC(=O)OC(C)(C)c1ccccc1 (stereo partly drawn) 1.70

Give log10(Ki); test system NS3 (Hepatitis C virus, UniProt A3EZJ3); molecule CC(C)CC(NC(=O)[C@@H]1[C@@H]2[C@H](CN1C(=O)[C@@H](NC(=O)OC(C)(C)C)C1CCCCC1)C2(C)C)C(=O)C(N)=O (stereo partly drawn) 2.60

----------
method-description: Bioavailability in dog at 3 mg/kg, po
Format: ADME, organism-based, Canis lupus familiaris
condition-label: in vivo
metric: bioavailability
I'd appreciate it if you wrote the number followed by its unit.

Report bioavailability, nothing else, for this compound: CC(C)(C)NC(=O)N[C@H](C(=O)N1C[C@H]2[C@@H]([C@H]1C(=O)NC(CC1CCC1)C(=O)C(N)=O)C2(C)C)C(C)(C)C (stereo partly specified) 30%

----------
// values below are reported AUC
method-description: AUC in monkey at 3 mg/kg, po
condition-label: rhesus monkey, plasma
Answer in µM·h, number only, no unit symbol.

compound: CC(C)(C)NC(=O)N[C@H](C(=O)N1C[C@H]2[C@@H]([C@H]1C(=O)NC(CC1CCC1)C(=O)C(N)=O)C2(C)C)C(C)(C)C (some centres not stated)
metric: AUC
numeric-result: 0.12

Kindly review the next compound as well.
Report AUC, nothing else, for this compound: CC(C)(C)OC(=O)N[C@H](C(=O)N1C[C@H]2[C@@H]([C@H]1C(=O)NC(CC1CCC1)C(=O)C(N)=O)C2(C)C)C1CCCCC1 (some centres not stated) 0.11

----------
method-description: Bioavailability in dog at 2 mg/kg, po
Assay type: ADME, organism-based, Canis lupus familiaris
condition-label: in vivo
metric: bioavailability (%)
Answer in %, number only, no unit symbol.

Report bioavailability, nothing else, for this molecule: CC(C)(C)NC(=O)N[C@H](C(=O)N1C[C@H]2[C@@H]([C@H]1C(=O)NC(CC1CC1)C(=O)C(N)=O)C2(C)C)C(C)(C)C (stereo partly specified) 36

----------
method-description: AUC in rat
Assay type: ADME, organism-based
condition-label: plasma
// values below are reported AUC
I'd appreciate it if you wrote the number followed by its unit.

Worked examples, 2 compounds total:
compound: CCCC(NC(=O)[C@@H]1[C@@H]2[C@H](CN1C(=O)[C@@H](NC(=O)OC(C)(C)C)C1CCCCC1)C2(C)C)C(=O)C(=O)NCC(=O)N[C@H](C)C1CCCCC1 (stereo partly drawn)
AUC: 0.09 µM·h

compound: CCCC(NC(=O)[C@@H]1[C@@H]2[C@H](CN1C(=O)[C@@H](NC(=O)OC(C)(C)C)C1CCCCC1)C2(C)C)C(=O)C(=O)NCC(=O)NCc1cccs1 (stereo partly drawn)
AUC: 0.73 µM·h

Kindly review the next compound as well.
Report AUC, nothing else, for this compound: CCCC(NC(=O)[C@@H]1[C@@H]2[C@H](CN1C(=O)[C@@H](NC(=O)OC(C)(C)C)C1CCCCC1)C2(C)C)C(=O)C(=O)NCC(=O)NCc1ccccc1 (stereo partly drawn) 1.27 µM·h

----------
method-description: AUC in dog at 2 mg/kg, po
Type: ADME, organism-based, Canis lupus familiaris
Design: dose 2 mg/kg, route oral
condition-label: plasma
metric: AUC
I'd appreciate it if you wrote the number followed by its unit.

Report AUC, nothing else, for this compound: CC(C)(C)NC(=O)N[C@H](C(=O)N1C[C@H]2[C@@H]([C@H]1C(=O)NC(CC1CC1)C(=O)C(N)=O)C2(C)C)C(C)(C)C (stereo partly specified) 1.6 µM·h

----------
// values below are reported Activity
Tested on: Huh-5-2
method-description: Cytotoxicity against hepatoma cell line containing HCV replicon measured as change in GAPDH RNA level
Format: functional, Homo sapiens

Worked examples, 2 compounds total:
compound: CC(C)(C)NC(=O)N[C@H](C(=O)N1C[C@H]2[C@@H]([C@H]1C(=O)NC(CC1CCC1)C(=O)C(N)=O)C2(C)C)C(C)(C)C (stereo partly drawn) [BOCEPREVIR]
Activity: >5 µM
//
compound: CC(C)(C)OC(=O)N[C@H](C(=O)N1C[C@H]2[C@@H](C1C(=O)NC(CC(F)(F)F)C(=O)C(N)=O)C2(C)C)C1CCCCC1 (stereo partly drawn)
Activity: >5 µM

Report Activity, nothing else, for this compound: C[C@@H](NC(=O)N[C@H](C(=O)N1C[C@H]2[C@@H]([C@H]1C(=O)NC(CC1CCC1)C(=O)C(N)=O)C2(C)C)C(C)(C)C)C(C)(C)C (stereo partly drawn) >5 µM

----------
// values below are reported Selectivity ratio
method-description: Selectivity for human neutrophil elastase (HNE) over HCV NS3 protease
Reply with the value as a number alone.

Worked examples, 8 molecules total:
molecule: CC(C)(C)OC(=O)N[C@H](C(=O)N1C[C@H]2[C@@H](C1C(=O)NC(CC(F)(F)F)C(=O)C(N)=O)C2(C)C)C1CCCCC1 (some centres undefined)
Selectivity ratio: 2

molecule: CC(C)(C)OC(=O)N[C@H](C(=O)N1C[C@H]2[C@@H]([C@H]1C(=O)NC(CC1CC1)C(=O)C(N)=O)C2(C)C)C1CCCCC1 (some centres undefined)
Selectivity ratio: 23

molecule: CC(C)(C)NC(=O)N[C@H](C(=O)N1C[C@H]2[C@@H]([C@H]1C(=O)NC(CC1CC1)C(=O)C(N)=O)C2(C)C)C1CCCCC1 (some centres undefined)
Selectivity ratio: 38

molecule: CN(C(=O)N[C@H](C(=O)N1C[C@H]2[C@@H]([C@H]1C(=O)NC(CC1CC1)C(=O)C(N)=O)C2(C)C)C(C)(C)C)C(C)(C)C (some centres undefined)
Selectivity ratio: 45

molecule: CC(C)NC(=O)N[C@H](C(=O)N1C[C@H]2[C@@H]([C@H]1C(=O)NC(CC1CCC1)C(=O)C(N)=O)C2(C)C)C(C)(C)C (some centres undefined)
Selectivity ratio: 4200

molecule: CC(C)(C)OC(=O)N[C@H](C(=O)N1C[C@H]2[C@@H]([C@H]1C(=O)NC(CC1CC1)C(=O)C(N)=O)C2(C)C)C1CCCC1 (some centres undefined)
Selectivity ratio: 11

molecule: CC(C)(C)OC(=O)N[C@H](C(=O)N1C[C@H]2[C@@H]([C@H]1C(=O)NC(CC1CCC1)C(=O)C(N)=O)C2(C)C)C(C)(C)O (some centres undefined)
Selectivity ratio: 55

molecule: C=C(C)CC(NC(=O)[C@@H]1[C@@H]2[C@H](CN1C(=O)[C@@H](NC(=O)OC(C)(C)C)C1CCCCC1)C2(C)C)C(=O)C(N)=O (some centres undefined)
Selectivity ratio: 2

Kindly review the next molecule as well.
Report Selectivity ratio, nothing else, for this molecule: CC1(NC(=O)N[C@H](C(=O)N2C[C@H]3[C@@H]([C@H]2C(=O)NC(CC2CC2)C(=O)C(N)=O)C3(C)C)C(C)(C)C)CC1 (some centres undefined) 100

----------
// values below are reported Activity
Tested on: Huh-5-2
method-description: Cytotoxicity against hepatoma cell line containing HCV replicon measured as change in GAPDH RNA level
Format: functional, Homo sapiens

Worked examples, 2 molecules total:
molecule: CC(C)(C)OC(=O)N[C@H](C(=O)N1C[C@H]2[C@@H]([C@H]1C(=O)NC(CC1CC1)C(=O)C(N)=O)C2(C)C)C1CCCCC1 (stereo partly drawn)
metric: Activity
result: >5 µM
//
molecule: CC(C)(C)OC(=O)N[C@H](C(=O)N1C[C@H]2[C@@H]([C@H]1C(=O)NC(CC1CC1)C(=O)C(N)=O)C2(C)C)C(C)(C)C (stereo partly drawn)
metric: Activity
result: >5 µM

Report Activity, nothing else, for this molecule: CC(C)(C)NC(=O)N[C@H](C(=O)N1C[C@H]2[C@@H]([C@H]1C(=O)NC(CC1CC1)C(=O)C(N)=O)C2(C)C)C(C)(C)C (stereo partly drawn) >5 µM

Hello, the source for this data is ChEMBL document CHEMBL1137396, in case you need it.
